Tested on: Staphylococcus aureus
Experiment: Antimicrobial activity against methicillin-resistant Staphylococcus aureus after 24 hrs by microdilution method
Format: functional, organism-based
Active and inactive are the calls of the source. The calls are words filed in the database; no cut-off is given here.
readoutKind: MIC

For orientation, consider the following solved cases.
[
  {
    "chemSmiles": "C[n+]1cnc2[nH]c(=O)n(-c3nc(N)[nH]c3[C@@H]3[C@@H](CNC(=O)c4cc(Br)c[nH]4)[C@H](CNC(=O)c4cc(Br)c[nH]4)[C@H]3c3cnc(N)[nH]3)c2c1N",
    "MIC": "inactive"
  },
  {
    "chemSmiles": "Nc1ncc(/C=C/CNC(=O)c2cc(Br)c(Br)[nH]2)[nH]1",
    "MIC": "inactive"
  },
  {
    "chemSmiles": "Nc1ncc([C@@H]2[C@@H](CNC(=O)c3cc(Br)c[nH]3)[C@H](CNC(=O)c3cc(Br)c[nH]3)[C@H]2c2cnc(N)[nH]2)[nH]1",
    "MIC": "inactive"
  },
  {
    "chemSmiles": "NCCC(=O)c1cccc2c1N[C@H](CNC(=O)c1cc(Br)c(Br)[nH]1)[C@@H](c1cnc(N)[nH]1)O2",
    "MIC": "inactive"
  }
]

Look up and report measured MIC for this entry: Nc1ncc([C@@H]2[C@@H](CNC(=O)c3ccc[nH]3)[C@H](CNC(=O)c3cc(Br)c[nH]3)[C@H]2c2cnc(N)[nH]2)[nH]1 inactive
